- assay_explanation: Aqueous solubility in at pH 7.4
observed_property: solubility (µg/mL)

smiles_repr=NS(=O)(=O)c1ccc(Nc2ncc3c(n2)-c2ccc(NC(=O)Cc4ccccc4)cc2CC3)cc1 reported_value=9
smiles_repr=NS(=O)(=O)c1ccc(Nc2ncc3c(n2)-c2ccc(NC(=O)Cc4cccs4)cc2CC3)cc1 reported_value=6
smiles_repr=NS(=O)(=O)c1ccc(Nc2nccc(-c3ccc(NC(=O)Cc4ccccc4)cc3)n2)cc1 reported_value=1
smiles_repr=NS(=O)(=O)c1ccc(Nc2ncc3c(n2)-c2ccccc2CC3)cc1 reported_value=7
smiles_repr=CN(C)CCNS(=O)(=O)c1ccc(Nc2ncc3c(n2)-c2ccsc2CC3)cc1 reported_value=36

A. NS(=O)(=O)c1ccc(Nc2nccc(-c3ccccc3)n2)cc1
B. COc1ccc(-c2ccnc(Nc3ccc(S(N)(=O)=O)cc3)n2)cc1
I'm curious whether A or B has the smaller solubility number. Which is it? Write the label of whichever entry you select.
A

1. Cc1ccc(-c2ccnc(Nc3ccc(S(N)(=O)=O)cc3)n2)s1
2. CC(C)(C)CC(=O)Nc1ccc2c(c1)CCc1cnc(Nc3ccc(S(N)(=O)=O)cc3)nc1-2
Between 1 and 2 , which one has the lower reported solubility value? Give the label under which the chosen entry appears.
1
(1: 3 µg/mL, 2: 9 µg/mL)

* * *

- test_system: Inhibitor of nuclear factor kappa-B kinase subunit beta (Homo sapiens)
- Sequence (O14920 whole entry): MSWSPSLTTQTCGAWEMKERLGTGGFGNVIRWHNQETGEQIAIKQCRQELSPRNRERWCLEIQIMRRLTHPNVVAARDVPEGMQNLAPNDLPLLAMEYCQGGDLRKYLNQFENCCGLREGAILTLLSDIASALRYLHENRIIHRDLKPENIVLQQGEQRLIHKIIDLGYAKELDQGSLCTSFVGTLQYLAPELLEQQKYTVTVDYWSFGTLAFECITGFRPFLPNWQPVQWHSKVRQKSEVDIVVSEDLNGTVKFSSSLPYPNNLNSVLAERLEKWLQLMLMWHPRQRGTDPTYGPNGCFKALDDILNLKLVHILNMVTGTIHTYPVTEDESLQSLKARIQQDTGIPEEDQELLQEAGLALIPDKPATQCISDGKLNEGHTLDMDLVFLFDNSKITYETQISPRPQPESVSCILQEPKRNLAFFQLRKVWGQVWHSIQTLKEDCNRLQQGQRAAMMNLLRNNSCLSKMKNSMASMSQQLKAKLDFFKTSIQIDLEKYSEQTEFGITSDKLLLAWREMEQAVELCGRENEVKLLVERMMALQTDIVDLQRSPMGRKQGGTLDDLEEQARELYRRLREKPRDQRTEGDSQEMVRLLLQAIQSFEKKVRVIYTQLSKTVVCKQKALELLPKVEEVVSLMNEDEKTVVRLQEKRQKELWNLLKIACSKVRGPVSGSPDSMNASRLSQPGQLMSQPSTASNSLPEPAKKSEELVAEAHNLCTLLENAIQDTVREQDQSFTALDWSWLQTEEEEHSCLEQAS
- assay_explanation: Inhibition of IKK-beta expressed in human HeLa cells transfected with pNFkappaB-luciferase assessed inhibition of TNF-alpha-induced NF-kappaB expression by luciferase reporter gene assay
- Assay type: cell-based
pIC50: −log10 of the molar value.
observed_property: pIC50

Past entries and their recorded results:
smiles_repr=COc1ccc2c(c1)CCc1cnc(Nc3ccc(S(N)(=O)=O)cc3)nc1-2 reported_value=6.38
smiles_repr=CN(C)CCNS(=O)(=O)c1ccc(Nc2ncc3c(n2)-c2ccsc2CC3)cc1 reported_value=6.29
smiles_repr=Cc1ccc(-c2ccnc(Nc3ccc(S(N)(=O)=O)cc3)n2)s1 reported_value=5.77

1. NS(=O)(=O)c1ccc(Nc2ncc3c(n2)-c2ccsc2CC3)cc1
2. NS(=O)(=O)c1ccc(Nc2nccc(-c3ccc(NC(=O)Cc4cccs4)cc3)n2)cc1
Kindly compare 1 with 2 and tell me which has the lower pIC50 figure. Please indicate the selected item by its label.
2
(2: 5.16, 1: 6.10)

* * *

- test_system: Inhibitor of nuclear factor kappa-B kinase subunit beta (Homo sapiens)
- assay_explanation: Inhibition of FLAG-tagged IKK-beta after 30 mins
observed_property: IC50 (nM)

Some compounds with recorded IC50:
smiles_repr=COc1ccc(CC(=O)Nc2ccc3c(c2)CCc2cnc(Nc4ccc(S(N)(=O)=O)cc4)nc2-3)cc1 observed_property=IC50 reported_value=1830
smiles_repr=COc1ccc2c(c1)CCc1cnc(Nc3ccc(S(N)(=O)=O)cc3)nc1-2 observed_property=IC50 reported_value=550
smiles_repr=NS(=O)(=O)c1ccc(Nc2nccc(-c3ccsc3)n2)cc1 observed_property=IC50 reported_value=180

1. COC(=O)CC(=O)Nc1ccc2c(c1)CCc1cnc(Nc3ccc(S(N)(=O)=O)cc3)nc1-2
2. NS(=O)(=O)c1ccc(Nc2ncc3c(n2)-c2ccc(NC(=O)C4CCCC4)cc2CC3)cc1
3. CC(C)(C)CC(=O)Nc1ccc(-c2ccnc(Nc3ccc(S(N)(=O)=O)cc3)n2)cc1
4. CC(C)(C)CC(=O)Nc1ccc2c(c1)CCc1cnc(Nc3ccc(S(N)(=O)=O)cc3)nc1-2
Number of compounds to sort: 4. Sort criterion: IC50, ascending. Provide the labels, sequenced as the question asks.
3, 1, 4, 2
(3: 10 nM, 1: 280 nM, 4: 820 nM, 2: 2200 nM)
